Source listed as patent US20250034167A1.

test_system: His-tagged KRAS G12D protein (Homo sapiens, UniProt P01116, G12D)
Sequence (P01116 1-188 isoform P01116-2 G12D): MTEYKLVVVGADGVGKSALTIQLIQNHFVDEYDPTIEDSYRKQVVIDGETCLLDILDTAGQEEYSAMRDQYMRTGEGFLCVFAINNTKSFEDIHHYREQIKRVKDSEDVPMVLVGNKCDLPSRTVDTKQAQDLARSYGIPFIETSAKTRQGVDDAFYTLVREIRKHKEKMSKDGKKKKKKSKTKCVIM
assay_protocol: biochemical
Could you please report measured IC50 for the items listed next?

# molecule, IC50
rows = [
    ("CCc1cccc2cc(O)cc(-c3ncc4c(N5CC6CC(O)C(C6)C5)nc(OC[C@@]56CCCN5C[C@H](F)C6)nc4c3F)c12 (single isomer, unassigned)", "1 nM"),
    ("C#Cc1c(F)ccc2cc(O)cc(-c3ncc4c(N5CCCC(O)(C(F)F)C5)nc(OC[C@@]56CCCN5C[C@H](F)C6)nc4c3F)c12 (single isomer, unassigned)", "1 nM"),
    ("CCc1c(F)ccc2cc(O)cc(-c3ncc4c(N5CCC(C(N)=O)C5)nc(OC[C@@]56CCCN5C[C@H](F)C6)nc4c3F)c12 (stereo partly drawn)", "9 nM"),
    ("Oc1cc(Cl)c(C2CC2)c(-c2ncc3c(N4CC5CC(O)C(C5)C4)nc(OC[C@@]45CCCN4C[C@H](F)C5)nc3c2F)c1 (single isomer, unassigned)", "3 nM"),
    ("CCc1cccc2cc(O)cc(-c3ncc4c(N5C6CCC5C(C)(O)CC6)nc(OC[C@@]56CCCN5C[C@H](F)C6)nc4c3F)c12 (stereo partly drawn)", "36 nM"),
]

Requested read-out IC50, target or system His-tagged KRAS G12D protein (Homo sapiens, UniProt P01116, G12D), entry C[C@@]1(O)CCCN(c2nc(OC[C@@]34CCCN3C[C@H](F)C4)nc3c(F)c(-c4cc(O)cc5ccc(F)c(Cl)c45)ncc23)C1
1 nM
